EXPERIMENTAL TARGET: T1, IL-18 receptors on HEK-Blue IL-18 reporter cells (UniProt Q13478 19-541; O95256 20-599, limits assumed); also: unit not given here
T1 sequence (looked up) 1: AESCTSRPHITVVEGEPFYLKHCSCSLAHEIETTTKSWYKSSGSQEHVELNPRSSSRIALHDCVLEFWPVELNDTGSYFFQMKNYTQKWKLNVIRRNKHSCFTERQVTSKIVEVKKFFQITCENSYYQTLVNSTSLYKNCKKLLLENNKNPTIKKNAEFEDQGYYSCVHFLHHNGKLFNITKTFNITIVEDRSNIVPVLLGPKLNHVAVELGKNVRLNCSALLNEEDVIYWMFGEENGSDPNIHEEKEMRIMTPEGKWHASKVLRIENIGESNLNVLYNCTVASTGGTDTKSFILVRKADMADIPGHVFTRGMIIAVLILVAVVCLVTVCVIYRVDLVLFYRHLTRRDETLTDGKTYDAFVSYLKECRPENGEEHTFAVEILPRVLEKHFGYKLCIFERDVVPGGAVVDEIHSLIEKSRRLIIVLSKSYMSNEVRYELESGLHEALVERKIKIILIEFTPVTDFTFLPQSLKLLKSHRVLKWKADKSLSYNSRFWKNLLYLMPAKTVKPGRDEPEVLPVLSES
T1 sequence (looked up) 2: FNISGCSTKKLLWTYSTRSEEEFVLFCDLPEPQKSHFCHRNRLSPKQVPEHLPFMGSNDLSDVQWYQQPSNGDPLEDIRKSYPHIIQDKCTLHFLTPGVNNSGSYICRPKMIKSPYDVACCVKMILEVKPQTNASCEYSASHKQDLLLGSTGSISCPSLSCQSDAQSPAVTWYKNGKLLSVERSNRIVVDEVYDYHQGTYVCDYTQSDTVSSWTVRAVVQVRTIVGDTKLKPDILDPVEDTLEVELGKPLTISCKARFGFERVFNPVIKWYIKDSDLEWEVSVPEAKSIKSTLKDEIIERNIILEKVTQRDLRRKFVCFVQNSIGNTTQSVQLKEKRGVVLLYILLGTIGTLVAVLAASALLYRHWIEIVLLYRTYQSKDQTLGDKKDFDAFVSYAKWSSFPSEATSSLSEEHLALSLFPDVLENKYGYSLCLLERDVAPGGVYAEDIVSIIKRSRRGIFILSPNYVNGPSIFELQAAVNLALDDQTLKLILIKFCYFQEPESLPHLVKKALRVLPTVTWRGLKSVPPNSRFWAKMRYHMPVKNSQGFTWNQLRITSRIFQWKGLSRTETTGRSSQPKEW
PROTOCOL NOTES: cell-based or functional assay

BINDER	Activity, No BP, DF-100000
IL-18 variant G3S, E6G, D54V, S55K, T63S, N91Y, R104T (ligand) YFSKLGSKLSVIRNLNDQVLFIDQGNRPLFEDMTDSDMRDNAPRTIFIISMYKVKQPRGMAVSISVKSEKISTLSSENKIISFKEMNPPDYIKDTKSDIIFFQTSVPGHDNKMQFESSSYEGYFLASEKERDLFKLILKKEDELGDRSIMFTVQNED	1.95
IL-18 variant G3P, E6G, D54T, S55W, N91E, R104K (ligand) YFPKLGSKLSVIRNLNDQVLFIDQGNRPLFEDMTDSDMRDNAPRTIFIISMYKTWQPRGMAVTISVKSEKISTLSSENKIISFKEMNPPDEIKDTKSDIIFFQKSVPGHDNKMQFESSSYEGYFLASEKERDLFKLILKKEDELGDRSIMFTVQNED	0.35
IL-18 variant G3P, E6G, D54P, S55W, N91E, R104K (ligand) YFPKLGSKLSVIRNLNDQVLFIDQGNRPLFEDMTDSDMRDNAPRTIFIISMYKPWQPRGMAVTISVKSEKISTLSSENKIISFKEMNPPDEIKDTKSDIIFFQKSVPGHDNKMQFESSSYEGYFLASEKERDLFKLILKKEDELGDRSIMFTVQNED	0.09

Reference for the values: patent US20240182536A1
